Where do the numbers come from? From the supplement of paper PMC10567573.

B1: SMOC2 (parent)
chain: QKPLCASDGRTFLSRCEFQRAKCK

variants of: B1; experiment: protein stability index of a GFP-peptide fusion (GPS, HEK-293T) (PSI 1-6); higher = more stable; details: c terminus: a fixed tail appended;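 further: lentivirally expressed fusions sorted by FACS into six bins by GFP to DsRed ratio, PSI derived from sequencing read proportions per bin multiplied by bin number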
Below, each entry is listed alongside its reported protein stability index.
assay.readout: protein stability index

>>> numeric_result("R20K")
3.47
>>> numeric_result("K2S")
2.93
>>> numeric_result("G9I")
1.9
>>> numeric_result("S14T")
3.4
>>> numeric_result("A21R")
3.18
>>> numeric_result("Q1F")
3.05
>>> numeric_result("D8T")
2.9
>>> numeric_result("R20S")
3.19
>>> numeric_result("C5G")
2.44
>>> numeric_result("Q1A")
2.81
>>> numeric_result("C5Y")
2.38
>>> numeric_result("K22Y")
2.46
>>> numeric_result("F18A")
3.93
>>> numeric_result("E17Q")
4.38
>>> numeric_result("E17H")
2.84
>>> numeric_result("G9T")
2.67
>>> numeric_result("K24Y")
2.49
>>> numeric_result("P3Y")
2.83
>>> numeric_result("S7F")
2.8
>>> numeric_result("P3V")
2.31
>>> numeric_result("R15T")
4.28
>>> numeric_result("C23N")
4
>>> numeric_result("Q19Y")
3.13
>>> numeric_result("C23W")
2.34
>>> numeric_result("S14I")
2.48
>>> numeric_result("A21V")
2.96
>>> numeric_result("S7R")
2.38
>>> numeric_result("L4W")
2.51
>>> numeric_result("K2P")
3.18
>>> numeric_result("R20M")
3.57
>>> numeric_result("L13W")
3.46
>>> numeric_result("R15N")
3.09
>>> numeric_result("P3W")
1.53
>>> numeric_result("R15L")
3.65
>>> numeric_result("A21G")
3.68
>>> numeric_result("P3M")
3.12
>>> numeric_result("L13P")
3.56
>>> numeric_result("A6C")
2.57
>>> numeric_result("F12A")
3.84
>>> numeric_result("D8V")
2.76
>>> numeric_result("E17V")
2.82
>>> numeric_result("R10H")
2.71
>>> numeric_result("G9Y")
1.9
>>> numeric_result("Q19G")
3.15
>>> numeric_result("C5H")
2.7
>>> numeric_result("S7W")
2.85
